- Procedure details: Determination of solubility of monomers in PBS (HPLC of filtrate against calibration curve)
- Format: physicochemical
- Reported conditions: aqueous buffer, thermodynamic from solid; monomer in PBS (pH 7.4), ambient temperature / 25° C., agitated 2 h, filtered; read-out: Solubility, mg/mL, 25° C.
- Description: About 30 mg of the monomer and 2 mL of PBS (pH 7.4) were added to a 2 dram vial. The vial was agitated on a vortex mixer for 2 h. If all the solid dissolved, more solid was added and agitation was continued. […] The clear filtrate was analyzed by HPLC by injecting 5 microliter of the filtrate. The area of the peak obtained was measured. […] Using this calibration curve the solubility of the monomer in PBS at ambient temperature was determined. […]
Value type: solubility at 2 h (mg/mL)
// note: answer is a bare numeric in mg/mL

Please look up its solubility at 2 h: CCOC(=O)[C@H](CO)NC(=O)CCc1ccc(O)cc1 [DAT-serine ethyl ester, Desaminotyrosyl Serine Ethyl Ester]
7.7

###

- Procedure details: Determination of solubility of monomers in PBS (HPLC of filtrate against calibration curve)
- Type: physicochemical
- Reported conditions: monomer in PBS (pH 7.4), ambient temperature / 25° C., agitated 2 h, filtered
A collection of molecules and their measured Solubility, mg/mL, 25° C.
// note: answer is a bare numeric in mg/mL

Would you please look over these solved cases?
Molecule	Solubility, mg/mL, 25° C. (mg/mL)
CCOC(=O)[C@H](Cc1ccc(O)cc1)NC(=O)CCc1ccc(O)cc1 [DAT-tyrosine ethyl ester (DTE), DAT-tyrosine ethyl ester, reference compound]	0.74
CCOC(=O)C1CC(O)CN1C(=O)CCc1ccc(O)cc1 (stereo not drawn) [DAT-trans-Hydroxyproline ethyl ester, DAT-Hydroxyproline Ethyl Ester]	12

Query molecule follows.
Please look up its Solubility, mg/mL, 25° C.: CCOC(=O)C(Cc1c[nH]c2ccc(O)cc12)NC(=O)CCc1ccc(O)cc1 (stereo not shown) [DAT-5-hydroxytryptophan ethyl ester, DAT-5-Hydroxytryptophan Ethyl Ester]
0.15

###

- Procedure details: Determination of solubility of monomers in PBS (HPLC of filtrate against calibration curve)
- Assay type: physicochemical
- Reported conditions: aqueous buffer, thermodynamic from solid; monomer in PBS (pH 7.4), incubator at 37° C. for 2 h, filtered, diluted 2× with PBS; read-out: Solubility, mg/mL, 37° C.
Value type: solubility at 2 h (mg/mL)
// note: answer is a bare numeric in mg/mL

Please look up its solubility at 2 h: CCOC(=O)[C@H](CO)NC(=O)CCc1ccc(O)cc1 [DAT-serine ethyl ester, Desaminotyrosyl Serine Ethyl Ester]
14.1
